The measured values listed here are drawn from paper PMC7068051.

- target-or-test-system: Mus m 1.0102 (Mus musculus)
- Construct: recombinant lipocalin allergen
- Sequence (P11589 19-180): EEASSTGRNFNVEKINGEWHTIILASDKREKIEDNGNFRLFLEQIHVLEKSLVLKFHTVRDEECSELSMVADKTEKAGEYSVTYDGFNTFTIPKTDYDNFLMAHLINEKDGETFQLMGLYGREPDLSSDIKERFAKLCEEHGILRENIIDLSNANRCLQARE
- procedure-details: direct fluorescence titration (ex […] nm, em […] nm), nonlinear regression
- setup-conditions: 20 nM protein, Tris-HCl 10 mM pH 7.2, 25 °C; hydrophobic pocket
recorded-metric: Kd (nM)
Answers are plain numbers, in nM.

Input: Which Kd value is on record for c1ccc(Nc2cccc3ccccc23)cc1 [N-Phenyl-1-naphthylamine] ?
Output: 25

----------
- target-or-test-system: Mus m 1.0102 (Mus musculus, UniProt P11589, C175A)
- Construct: recombinant lipocalin allergen
- Sequence (P11589 19-180 C175A): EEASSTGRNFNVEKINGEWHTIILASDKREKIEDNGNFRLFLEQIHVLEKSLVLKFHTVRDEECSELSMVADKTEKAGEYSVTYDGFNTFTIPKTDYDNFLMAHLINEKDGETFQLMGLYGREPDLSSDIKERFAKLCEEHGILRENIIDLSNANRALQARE
- procedure-details: direct fluorescence titration (ex […] nm, em […] nm), nonlinear regression
recorded-metric: Kd (nM)
One number for each entry, in nM.

Input: Given c1ccc(Nc2cccc3ccccc23)cc1 [N-Phenyl-1-naphthylamine] , state its recorded Kd.
Output: 85.5

----------
- target-or-test-system: Mus m 1.0102 (Mus musculus, UniProt P11589, C156A/C175A)
- Construct: recombinant lipocalin allergen
- procedure-details: direct fluorescence titration (ex […] nm, em […] nm), nonlinear regression
- setup-conditions: 20 nM protein, Tris-HCl 10 mM pH 7.2, 25 °C; hydrophobic pocket
recorded-metric: pKd
Answers are plain numbers, as −log10 of the molar value.

Input: // lookup pKd for c1ccc(Nc2cccc3ccccc23)cc1 [N-Phenyl-1-naphthylamine]
Output: 7.34
